System: Zymoseptoria tritici
Test: Test C: wheat leaf blotch control on wheat seedlings
Type: in vivo
Details: 250 ppm; wheat seedlings; 100 = 100% disease control, 0 = no control
Mark fulfilled for reported Test C disease control rating of 80% or greater; mark not fulfilled for anything smaller.

Some solved entries appear below for comparison.
COc1ccnc(C(=O)NC(C)C(=O)OC(C)C2CCc3ccccc3O2)c1O (mixture of isomers): fulfilled
CCC(OC(=O)[C@H](C)NC(=O)c1nccc(OC)c1O)C1CCCCC1 (single isomer, unassigned) [Compound 182]: not fulfilled
COc1ccnc(C(=O)NC(C)C(=O)OC(C)c2ccccc2Cc2ccc(F)cc2)c1O (mixture of isomers): not fulfilled
COc1ccnc(C(=O)NC(C)C(=O)OC(C)c2ccc(C#C[Si](C)(C)C)cc2)c1OC(C)=O (mixture of isomers): fulfilled
CCC(OC(=O)[C@H](C)NC(=O)c1nccc(OC)c1OC(C)=O)c1ccc(C2CCCCC2)cc1 (single isomer, unassigned) [Compound 130]: not fulfilled

Exercise: Does COc1ccnc(C(=O)NC(C)C(=O)N(C)C(C)c2ccc(C3CCCCC3)cc2)c1OC(C)=O (mixture of isomers) have a reported Test C disease control rating of at least 80%?
Solution: fulfilled

Exercise: Also COc1ccnc(C(=O)N[C@@H](C)C(=O)OC(C)C2CCCCC2)c1OC(C)=O (single isomer, unassigned) ?
Solution: not fulfilled

Exercise: Same again, this time with COc1ccnc(C(=O)NC(C)C(=O)OC(C)c2ccc(C3CCCCC3)cc2)c1OS(C)(=O)=O (mixture of isomers)
Solution: not fulfilled

Exercise: And then COc1ccnc(C(=O)N[C@@H](C)C(=O)OC(C)c2ccccc2Cc2ccc(F)cc2)c1O (single isomer, unassigned) , what is it?
Solution: fulfilled

Exercise: Moving on to the next compound: CCC(OC(=O)C(C)NC(=O)c1nccc(OC)c1O)c1ccc(C2CCCCC2)cc1 (mixture of isomers)
Solution: not fulfilled

Exercise: What about this compound? COc1ccnc(C(=O)N[C@@H](C)C(=O)OC(C2CCCCC2)C2CCCCC2)c1O
Solution: not fulfilled
